Entry source: paper PMC3825860

Type: in vivo, human
test.settings: male, human, plasma, po
measurement.type: AUC(0-t) (ng·h/mL)
Provide the reading as a plain figure in ng·h/mL.

What the record says about CC(C)=CCC[C@](C)(O[C@@H]1O[C@H](CO[C@@H]2O[C@H](CO)[C@@H](O)[C@H](O)[C@H]2O)[C@@H](O)[C@H](O)[C@H]1O)[C@H]1CC[C@]2(C)[C@@H]1[C@H](O)C[C@@H]1[C@@]3(C)CC[C@H](O[C@@H]4O[C@H](CO)[C@@H](O)[C@H](O)[C@H]4O[C@@H]4O[C@H](CO)[C@@H](O)[C@H](O)[C@H]4O)C(C)(C)[C@@H]3CC[C@]12C [Ginsenoside Rb1, ginsenoside Rb1] : AUC(0-t) is 102

* * *

Type: in vivo, human
test.settings: male, human, plasma, po
measurement.type: AUC(0-inf) (ng·h/mL)
Provide the reading as a plain figure in ng·h/mL.

What the record says about CC(C)=CCC[C@](C)(O[C@@H]1O[C@H](CO[C@@H]2O[C@H](CO)[C@@H](O)[C@H](O)[C@H]2O)[C@@H](O)[C@H](O)[C@H]1O)[C@H]1CC[C@]2(C)[C@@H]1[C@H](O)C[C@@H]1[C@@]3(C)CC[C@H](O[C@@H]4O[C@H](CO)[C@@H](O)[C@H](O)[C@H]4O[C@@H]4O[C@H](CO)[C@@H](O)[C@H](O)[C@H]4O)C(C)(C)[C@@H]3CC[C@]12C [Ginsenoside Rb1, ginsenoside Rb1] : AUC(0-inf) is 308
